Catalogue of pIC50 values
System: MCF-7
Procedure Text: 3H-TdR (3H-thymidine) incorporation assay at 72 hr
Format: cell-based, Human
Measurement Conditions: Homo sapiens, MCF7, read-out: IC50 MCF-7 (72 h), 72 h exposure; 3H-TdR incorporation at 72 hr
pIC50: −log10 of the molar value.

Compound: Nc1ccn([C@@H]2CO[C@H](CO)O2)c(=O)n1 [BCH-4556]
pIC50: 7.18
--
Compound: CC(C)C(=O)OC[C@H]1OC[C@@H](n2ccc(N)nc2=O)O1 [Compound 275]
pIC50: 8.36
--
Compound: CC(C)(C)C(=O)OC[C@H]1OC[C@@H](n2ccc(N)nc2=O)O1 [Compound 279]
pIC50: 7.68
--
Compound: CC(C)CC(=O)OC[C@H]1OC[C@@H](n2ccc(N)nc2=O)O1 [Compound 278]
pIC50: 7.64

----------
Tested on: MCF-7
Procedure Text: 3H-TdR incorporation at 72 hr (24 hr drug exposure, wash, 48 hr)
Assay type: cell-based, Human
Measurement Conditions: Homo sapiens, MCF7, read-out: IC50 in μM (3H-TdR incorporation at 72 hr) MCF-7 24 h, MCF-7 Human Breast Carcinoma, 72 hr assay
Catalogue of IC50 values
Metric Name: IC50 (µM)

Compound: CN(C)CCCCOC(=O)Nc1ccn([C@@H]2CO[C@H](CO)O2)c(=O)n1.O=C(O)C(F)(F)F [Compound 169, TRIFLUOROACETIC ACID SALT]
Tested On: MCF-7
Metric Name: IC50
Value Units: µM
Readout Value: 5.1
//
Compound: COc1ccc(C(OC)(OC)OC[C@H]2OC[C@@H](n3ccc(N)nc3=O)O2)cc1
Tested On: MCF-7
Metric Name: IC50
Value Units: µM
Readout Value: 1.9
//
Compound: C[C@H]1CC[C@@](C)(C(=O)Nc2ccn([C@@H]3CO[C@H](CO)O3)c(=O)n2)C1(C)C
Tested On: MCF-7
Metric Name: IC50
Value Units: µM
Readout Value: 1.1
//
Compound: Nc1ccn([C@@H]2CO[C@H](COC(=O)c3ccccc3Cc3ccccc3)O2)c(=O)n1
Tested On: MCF-7
Metric Name: IC50
Value Units: µM
Readout Value: 0.029

----------
System: MCF-7
Procedure Text: 3H-TdR incorporation at 72 hr (24 hr drug exposure, wash, 48 hr)
Type: cell-based, Human
Measurement Conditions: Homo sapiens, MCF7, read-out: IC50 in μM (3H-TdR incorporation at 72 hr) MCF-7 24 h, MCF-7 Human Breast Carcinoma, 72 hr assay
Metric Name: log10(IC50) (log10 of the value in µM)

Smiles Text: CC(C)(C)C(=O)Oc1ccc(COC(=O)Nc2ccn([C@@H]3CO[C@H](COC(=O)OCc4ccc(OC(=O)C(C)(C)C)cc4)O3)c(=O)n2)cc1
Metric Name: log10(IC50)
Readout Value: -3.23
//
Smiles Text: Nc1ccn([C@@H]2CO[C@H](COC(=S)Sc3ccccc3)O2)c(=O)n1
Metric Name: log10(IC50)
Readout Value: -0.05
//
Smiles Text: CC(C)(C)C(=O)Oc1ccc(COC(=O)Nc2ccn([C@@H]3CO[C@H](CO)O3)c(=O)n2)cc1
Metric Name: log10(IC50)
Readout Value: -3.57
//
Smiles Text: CC(C)Cc1ccc([C@H](C)C(=O)Nc2ccn([C@@H]3CO[C@H](CO)O3)c(=O)n2)cc1
Metric Name: log10(IC50)
Readout Value: -3.00
//
Smiles Text: COc1ccc(C(=O)Nc2ccn([C@@H]3CO[C@H](COC(=O)c4ccc(OC)cc4)O3)c(=O)n2)cc1
Metric Name: log10(IC50)
Readout Value: 1.32
//
Smiles Text: CN(C)CCCOC(=O)OC[C@H]1OC[C@@H](n2ccc(N)nc2=O)O1.O=C(O)C(F)(F)F
Metric Name: log10(IC50)
Readout Value: -0.85
//
Smiles Text: O=C(Nc1ccn([C@@H]2CO[C@H](CO)O2)c(=O)n1)C1(c2ccccc2)CCCC1
Metric Name: log10(IC50)
Readout Value: 1.18

----------
Test system: CEM cells
Procedure Text: CellTiter 96 cell proliferation assay (chemosensitivity), 48 h
Assay type: cell-based
Measurement Conditions: Homo sapiens, CCRF-CEM, 48 h, read-out: EC50 (50% of the dose response curve)
Description: The chemosensitivity of suspension cells lines (e.g., CEM or CEM-derivatives) is assessed using the CellTiter 96 ? proliferation assay. […] Adherent cell lines (e.g., DU145 or DU145^R) are seeded (^˜10^5 cells) in triplicate dishes, 24 h before drug exposure. Growth inhibition is determined by trypsinization and counting cells electronically.
pEC50: −log10 of the molar value.

Compound: Nc1ccn([C@@H]2O[C@H](CO)[C@@H](O)[C@@H]2O)c(=O)n1 [Cytarabine, cytarabine, reference compound]
Tested On: CEM cells
pEC50: 8.00

----------
System: MCF-7
Procedure Text: 3H-TdR incorporation at 72 hr (24 hr drug exposure, wash, 48 hr)
Type: cell-based, Human
Measurement Conditions: Homo sapiens, MCF7, read-out: IC50 in μM (3H-TdR incorporation at 72 hr) MCF-7 24 h, MCF-7 Human Breast Carcinoma, 72 hr assay
# note: exactly 0.9 µM is not below, so it is false (0); use true (1) for IC50 strictly under it

Molecule: C#CCOC[C@H]1OC[C@@H](n2ccc(N)nc2=O)O1
Group Label: false (0)
//
Molecule: Cc1ccc(C)c(OCCCC(C)(C)C(=O)Nc2ccn([C@@H]3CO[C@H](CO)O3)c(=O)n2)c1
Group Label: true (1)
//
Molecule: COC(OC)(OC)OC[C@H]1OC[C@@H](n2ccc(N)nc2=O)O1
Group Label: true (1)
//
Molecule: CC(C)(C)OC(=O)NCCCCCC(=O)Nc1ccn([C@@H]2CO[C@H](CO)O2)c(=O)n1
Group Label: true (1)
//
Molecule: Cc1cccc(C)c1C(=O)OC[C@H]1OC[C@@H](n2ccc(N)nc2=O)O1
Group Label: false (0)
//
Molecule: C/C(=N\c1ccn([C@@H]2CO[C@H](CO)O2)c(=O)n1)N(C)C
Group Label: false (0)
//
Molecule: CCCCC[C@H]1CC[C@H](C(=O)Nc2ccn([C@@H]3CO[C@H](CO)O3)c(=O)n2)CC1
Group Label: true (1)
//
Molecule: CCCCN(/C=N/c1ccn([C@@H]2CO[C@H](CO)O2)c(=O)n1)CCCC (stereo in doubt)
Group Label: true (1)
//
Molecule: O=c1nc(/N=C2/CCCN2Cc2ccccc2)ccn1[C@@H]1CO[C@H](CO)O1 (stereo in doubt)
Group Label: false (0)
//
Molecule: O=C(CCCCCCCc1ccccc1)Nc1ccn([C@@H]2CO[C@H](COC(=O)CCCCCCCc3ccccc3)O2)c(=O)n1
Group Label: true (1)
//
Molecule: O=C(Nc1ccn([C@@H]2CO[C@H](CO)O2)c(=O)n1)C(c1ccccc1)c1ccccc1
Group Label: true (1)
//
Molecule: CC(C)Cc1ccc([C@H](C)C(=O)OC[C@H]2OC[C@@H](n3ccc(N)nc3=O)O2)cc1
Group Label: true (1)
//
Molecule: CC(CCCCCCc1ccccc1)C(=O)Nc1ccn([C@@H]2CO[C@H](CO)O2)c(=O)n1 (stereo partly drawn)
Group Label: true (1)
//
Molecule: CCCCC(CC)(CC)C(=O)OC[C@H]1OC[C@@H](n2ccc(N)nc2=O)O1
Group Label: true (1)

----------
System: MCF-7
Procedure Text: 3H-TdR incorporation at 72 hr (24 hr drug exposure, wash, 48 hr)
Format: cell-based, Human
Measurement Conditions: Homo sapiens, MCF7, read-out: IC50 in μM (3H-TdR incorporation at 72 hr) MCF-7 24 h, MCF-7 Human Breast Carcinoma, 72 hr assay
Catalogue of IC50 values

Smiles Text: Nc1ccn([C@@H]2CO[C@H](COC(=O)C3(c4ccccc4)CC3)O2)c(=O)n1
Tested On: MCF-7
IC50: 0.15 µM

Smiles Text: CCOC[C@H]1OC[C@@H](n2ccc(N)nc2=O)O1
Tested On: MCF-7
IC50: 5.8 µM

Smiles Text: O=c1nc(NCNc2ccccc2)ccn1[C@@H]1CO[C@H](CO)O1
Tested On: MCF-7
IC50: 0.019 µM

Smiles Text: COc1ccc(C(OC[C@H]2OC[C@@H](n3ccc(N)nc3=O)O2)(c2ccc(OC)cc2)c2ccc(OC)cc2)cc1
Tested On: MCF-7
IC50: 0.064 µM

Smiles Text: COC(OC)(OC[C@H]1OC[C@@H](n2ccc(N)nc2=O)O1)c1ccc(C)cc1
Tested On: MCF-7
IC50: 1.1 µM

Smiles Text: CC(C)N(/C=N/c1ccn([C@@H]2CO[C@H](CO)O2)c(=O)n1)C(C)C
Tested On: MCF-7
IC50: 3.8 µM

Smiles Text: CCC(CC)(CCCCCCc1ccccc1)C(=O)OC[C@H]1OC[C@@H](n2ccc(N)nc2=O)O1
Tested On: MCF-7
IC50: 13 µM

Smiles Text: C=CCOC[C@H]1OC[C@@H](n2ccc(N)nc2=O)O1
Tested On: MCF-7
IC50: 2.8 µM

Smiles Text: CCCCC[C@H]1CC[C@H](C(=O)OC[C@H]2OC[C@@H](n3ccc(N)nc3=O)O2)CC1
Tested On: MCF-7
IC50: ≤ 0.0001 µM

Smiles Text: CCCCCCc1ccc(C(=O)OC[C@H]2OC[C@@H](n3ccc(N)nc3=O)O2)cc1
Tested On: MCF-7
IC50: < 0.0001 µM

Smiles Text: CC(C)(C)OC(=O)NCCCCCC(=O)OC[C@H]1OC[C@@H](n2ccc(N)nc2=O)O1
Tested On: MCF-7
IC50: 0.004 µM

Smiles Text: O=C(Nc1ccn([C@@H]2CO[C@H](CO)O2)c(=O)n1)C1(c2ccccc2)CCCCC1
Tested On: MCF-7
IC50: 11 µM
